Taken from PubChem BioAssay (NCI).

- Tested on: OVCAR-5 ovarian
- Assay Protocol: NCI tumour cell line growth inhibition, 48 h; in the data active = GI50 below about 0.43 µM; inactive = the rest
Return exactly one item of yes (1) (active), no (0) (inactive)

CN(C)CCNC(=O)NC[C@H]1CC[C@@H]2[C@H](O1)c1cc(C(F)(F)F)ccc1N[C@H]2c1ccccc1 = no (0)
Nc1c(F)cc(-c2nc3cc(F)ccc3[se]2)cc1Br = yes (1)
CSc1ccc(C(=O)/C=C/c2ccccc2Cl)cc1 = no (0)
COc1cccc(Nc2nccc(-c3cnn4ncccc34)n2)c1 = yes (1)
C=CCc1c(O)c(C(=O)/C=C/c2ccccc2)c(OC)c2ccoc12 = no (0)

Field: outcome | Entry: COC(=O)[C@]12CC[C@@H](C)[C@H](C)[C@@H]1C1=CC[C@@H]3[C@@]4(C)C(C=O)=C[C@@](C)(COC(=O)/C=C/c5ccccc5)[C@@H]4[C@H](O)C[C@@]3(C)[C@]1(C)CC2 no (0)

Field: outcome | Entry: COCCn1cc(-c2csc(-c3c[nH]c4ccc(Br)cc34)n2)c2cccnc21 no (0)

Field: outcome | Entry: COC1=CC(=O)c2nc(Cl)ccc2C1=O no (0)

Field: outcome | Entry: CN1CCN(Cc2cc(NC(=O)c3cccc(C#Cc4cccc5[nH]nc(N)c45)c3)cc(C(F)(F)F)c2)CC1 no (0)

Field: outcome | Entry: CCCN1CCC(c2ccc(Nc3nc(Nc4cc(F)ccc4C(N)=O)c4cc[nH]c4n3)c(OC)c2)CC1 no (0)

Field: outcome | Entry: Nc1ncnc2c1ccn2[C@@H]1O[C@H]([C@H](O)c2ccc(Cl)c(F)c2)[C@@H](O)[C@H]1O no (0)

Field: outcome | Entry: Cn1c2ccccc2c2c(=O)n(CCCC(=O)OC(=NC3CCCCC3)NC3CCCCC3)c3c(-c4ccccc4)nnn3c21 no (0)

###

- Test system: COLO 205 colon
- Assay Protocol: NCI tumour cell line growth inhibition, 48 h
Measure: GI50

Known GI50 results, listed for orientation:
Cn1c2ccccc2c2c(=O)n(CCCC(=O)OC(=NC3CCCCC3)NC3CCCCC3)c3c(-c4ccccc4)nnn3c21 = > 100 µM
CN(C)c1ccc(N=C2C=CC(=O)c3ccccc32)cc1 = 2.06 µM

In the following, a different compound is considered.
Recall and state the measured GI50 for CCC[CH2][Pb]([Cl])([CH2]CCC)[CH2]CCC . 0.0194 µM

###

Parameter: TGI. Scope: all listed entries.
- System: SK-MEL-5 melanoma
- Assay Protocol: NCI tumour cell line growth inhibition, 48 h
Give the value, in units of µM, as a plain number.

Known TGI results, listed for orientation:
Cc1cc2nc(N3C(=O)/C(=C/c4ccc(N(C)C)cc4)N=C3c3ccccc3)sc2cc1C = 44.4
COc1cc(/C=C2\C[C@H]3[C@@H]4CC=C5C[C@@H](OC(C)=O)CC[C@]5(C)[C@H]4CC[C@]3(C)[C@H]2OC(C)=O)ccc1OCCN1CCCC1 = 15.1
O=C1/C(=C/c2ccc(Cl)cc2)CSC/C1=C\c1ccc(Cl)cc1 = 10.6

Recall and state the measured TGI for O=C1CCCc2ccc3c(c21)CC1(Cc2ccccc2C1)C3 . 33.4

Recall and state the measured TGI for N#CC1C(=O)NC(c2ccccc2[N+](=O)[O-])c2sc3c(F)cccc3c21 (stereo not given) . 33.8

Recall and state the measured TGI for CC1CC[P+](c2ccccc2)(c2ccccc2)CC1 . 51.1
